Target: Left-right determination factor 2 (Homo sapiens) (UniProt O00292)
Sequence (O00292 whole entry, looked up): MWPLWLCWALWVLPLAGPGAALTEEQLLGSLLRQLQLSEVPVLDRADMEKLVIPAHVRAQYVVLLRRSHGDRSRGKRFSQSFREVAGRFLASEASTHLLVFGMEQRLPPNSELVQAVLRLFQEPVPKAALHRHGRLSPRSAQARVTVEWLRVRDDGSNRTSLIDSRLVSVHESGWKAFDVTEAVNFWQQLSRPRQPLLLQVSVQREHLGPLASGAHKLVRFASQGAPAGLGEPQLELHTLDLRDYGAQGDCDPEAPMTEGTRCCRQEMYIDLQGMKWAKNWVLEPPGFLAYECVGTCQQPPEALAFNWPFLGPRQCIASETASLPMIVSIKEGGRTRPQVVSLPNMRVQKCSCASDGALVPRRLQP
Assay: small molecules binding LEFTY2 protein – biochemical, small-molecule microarray, 635 nm fluorescence scan, primary screen (AID 1110)
Conditions: higher = more signal
I'd appreciate it if you could supply composite z-score values for the items below.
Format: numeric value only, no unit, no commentary.

Problem: Query the reported composite z-score for Left-right determination factor 2 (Homo sapiens) (UniProt O00292); item: CC(C)=CCCC(C)=CC(O)C1C=CC2C(=O)N(c3ccccc3)C(=O)C2N1Nc1ccc(C(C)C)cc1 (stereo not given)
Result: -0.0675

Problem: Query the reported composite z-score for Left-right determination factor 2 (Homo sapiens) (UniProt O00292); item: CC(C)N1CC=CC23O[C@@H]4C=CCOC(=O)[C@@H]4[C@H]2C(=O)N(CCCCCO)[C@@H]3C1=O (stereo not given in full)
Result: -0.624

Problem: Query the reported composite z-score for Left-right determination factor 2 (Homo sapiens) (UniProt O00292); item: `CCCC[C@H]1C[C@@H]1[C@@H]1N(P(=O)(c2ccccc2)c2ccccc2)C[C@@](O)(c2ccccc2)CC12CC2`
Result: -1.06

Problem: Query the reported composite z-score for Left-right determination factor 2 (Homo sapiens) (UniProt O00292); item: COc1cc(OC)c(C(O)C2C=CC3C(=O)NC(=O)C3N2Nc2ccccn2)cc1Br (stereo not given)
Result: 0.586

Problem: Query the reported composite z-score for Left-right determination factor 2 (Homo sapiens) (UniProt O00292); item: `C=CCOC(=O)[C@H]1[C@@H]2C(=O)O[C@@H](c3ccccc3)[C@@H](c3ccccc3)N2[C@@H](c2ccc(OCCOC(=O)[C@@H]3C[C@@H]4C(=O)N5CCC[C@H]5C(=O)N4[C@@H]3c3cccc(OCCO)c3)cc2)[C@]12C(=O)Nc1ccc(I)cc12`
Result: 0.872

Problem: Query the reported composite z-score for Left-right determination factor 2 (Homo sapiens) (UniProt O00292); item: Cc1ccc(C2C3C(=O)CC4C(=O)N(c5ccccc5)C(=O)C4C3CN2S(=O)(=O)c2ccc(C)cc2)cc1 (stereo not given)
Result: 0.0699

Problem: Query the reported composite z-score for Left-right determination factor 2 (Homo sapiens) (UniProt O00292); item: `COC(=O)[C@@]1(CCC(=O)OC(C)(C)C)N=C(c2ccc(OCCCO)cc2)O[C@H]1c1ccccc1`
Result: -0.211

Problem: Query the reported composite z-score for Left-right determination factor 2 (Homo sapiens) (UniProt O00292); item: `C=C(CCCC)C(=O)CC[C@@H](OC(C)=O)c1ccc(CO)o1`
Result: 0.523

Problem: Query the reported composite z-score for Left-right determination factor 2 (Homo sapiens) (UniProt O00292); item: CC=CC(O)C1C=CC2C(=O)N(C)C(=O)C2N1N(c1ccccc1)c1ccccc1 (stereo not given)
Result: 0.36

Problem: Query the reported composite z-score for Left-right determination factor 2 (Homo sapiens) (UniProt O00292); item: `[N-]=[N+]=Nc1ccccc1[C@H]1OC(c2ccc(OCCCO)cc2)=N[C@@]1(Cc1ccccc1)C(=O)N1CCOCC1`
Result: 0.103

Problem: Query the reported composite z-score for Left-right determination factor 2 (Homo sapiens) (UniProt O00292); item: O=C1C2C=CC(C(O)COCc3ccccc3)N(Nc3ccc([N+](=O)[O-])cc3)C2C(=O)N1c1ccccc1 (stereo not given)
Result: 0.308

Problem: Query the reported composite z-score for Left-right determination factor 2 (Homo sapiens) (UniProt O00292); item: CCCCCCCCCCC(O)C1C=CC2C(=O)NC(=O)C2N1Nc1ccc(Cl)cc1Cl (stereo not given)
Result: -1.67

Problem: Query the reported composite z-score for Left-right determination factor 2 (Homo sapiens) (UniProt O00292); item: `COCCOC(=O)N1C(=O)[C@@]2(c3cc(C#CC4=CCCCC4)ccc31)[C@H](c1ccc(OCCO)cc1)N1[C@H](c3ccccc3)[C@H](c3ccccc3)OC(=O)[C@H]1[C@@H]2C(=O)N1CCc2cc(OC)c(OC)cc2C1`
Result: 1

Problem: Query the reported composite z-score for Left-right determination factor 2 (Homo sapiens) (UniProt O00292); item: CCN(CC)c1ccc(N2CC=CC34O[C@@H]5C=CCOC(=O)[C@@H]5[C@H]3C(=O)N(CCCCCCO)[C@@H]4C2=O)cc1 (stereo not given in full)
Result: -0.699

Problem: Query the reported composite z-score for Left-right determination factor 2 (Homo sapiens) (UniProt O00292); item: `Cc1ccc(S[C@]2(C(=O)O)CC(=O)N(Cc3ccccc3C(F)(F)F)[C@@H]2c2ccc(CO)cc2I)cc1`
Result: -1.66

====

Test: plasmodial surface anion channel blockers, osmotic lysis – cell-based, P. falciparum Indochina, OD700, 1 h, primary screen (AID 1154)
Details: P. falciparum Indochina infected RBC osmotic lysis, higher = more signal, called active from +8 up or from −8 down
Active and inactive are the calls of the source.
Readout: z-score

Problem: Data request, read-out z-score, for `COC(=O)C(CC#Cc1ccc2c(c1)[C@]1(C(=O)N2)[C@H](c2ccc(O)cc2)N2[C@H](c3ccccc3)[C@H](c3ccccc3)OC(=O)[C@H]2[C@@H]1C(=O)N1CCN(c2ncccn2)CC1)C(=O)OC`
Result: 5.42 (inactive)

Problem: Data request, read-out z-score, for `COc1ccc(CCNC(=O)[C@@]2(c3ccc([N+](=O)[O-])cc3)CC(=O)N(CC34CC5CC(CC(C5)C3)C4)[C@@H]2c2ccc(CO)cc2I)cc1`
Result: 16.3 (active)

Problem: Data request, read-out z-score, for `COCCOC(=O)N1C(=O)[C@@]2(c3cc(C#CC4(O)CCCCCC4)ccc31)[C@H](C(=O)Nc1nc3ccccc3s1)[C@H]1C(=O)O[C@H](c3ccccc3)[C@H](c3ccccc3)N1[C@@H]2c1ccc(OCCO)cc1`
Result: 2.97 (inactive)

Problem: Data request, read-out z-score, for `C=CCN1Cc2ccccc2[C@@H]2OC(c3ccc(OCCCO)cc3)=N[C@]2(CCS(=O)(=O)c2ccccc2)C1=O`
Result: 27.2 (active)

Problem: Data request, read-out z-score, for COc1cc(OC)c(C(O)C2C=CC3C(=O)NC(=O)C3N2Nc2ccccn2)cc1Br (stereo unspecified)
Result: 1.54 (inactive)

Problem: Data request, read-out z-score, for `COC(=O)[C@H](Cc1ccccc1)N[C@H](/C=C/C1CC1)[C@@H](O)Cc1ccccc1`
Result: 0.786 (inactive)

====

Biological target: Follistatin-related protein 3 (Homo sapiens) (UniProt O95633)
Sequence (O95633 whole entry, looked up): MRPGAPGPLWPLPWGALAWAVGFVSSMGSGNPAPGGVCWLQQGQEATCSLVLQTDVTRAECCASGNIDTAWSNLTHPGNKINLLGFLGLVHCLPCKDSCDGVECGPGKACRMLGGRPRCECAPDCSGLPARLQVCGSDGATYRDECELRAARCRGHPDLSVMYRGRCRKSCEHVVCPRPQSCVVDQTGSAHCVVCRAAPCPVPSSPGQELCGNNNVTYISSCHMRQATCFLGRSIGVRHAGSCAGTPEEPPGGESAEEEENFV
Test: compounds binding follistatin-related protein 3 – biochemical, small-molecule microarray, 635 nm fluorescence, primary screen (AID 1105);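 also: score merges emission near 667 nm and signal to noise per printed spot across three slides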
Details: FSTL3 binding, higher = more signal
I'd appreciate it if you could supply composite z-score values for the items below.
Format: numeric value only, no unit, no commentary.

Problem: Data request, read-out composite z-score, for `CC(C)(C)OC(=O)CC[C@]1(C(=O)NCCN2CCOCC2)COC(c2ccc(OCCCO)cc2)=N1`
Result: 0.683

Problem: Data request, read-out composite z-score, for `CO[C@H]1O[C@H](CO)[C@@H](OC(=O)Nc2ccc(Oc3ccccc3)cc2)[C@H](OC(=O)Nc2ccc3c(c2)OCO3)[C@@H]1OC(=O)Nc1ccc2c(c1)OCO2`
Result: 1.39

Problem: Data request, read-out composite z-score, for C=CC1c2cc(O)c(OC)cc2CCN1Cc1cccc(OC(F)(F)F)c1 (stereo not given)
Result: 0.0396

Problem: Data request, read-out composite z-score, for `COCC(=C=CC[C@H](O)c1cccc(OCCO)c1)C[C@H](O)c1cc(Cl)cc(Cl)c1O`
Result: 0.785

Problem: Data request, read-out composite z-score, for `COc1ccc([Si](C)(C)[C@@H]2[C@@H](CC(=O)N3CCC[C@H]3CO)O[C@]3(C(=O)N(Cc4cccc(I)c4)c4ccccc43)[C@H]2C)cc1`
Result: 1.44

Problem: Data request, read-out composite z-score, for COc1ccc(C(O)C2C=CC3C(=O)N(C)C(=O)C3N2NC(=O)OC(C)(C)C)c2ccccc12 (stereo not given)
Result: 1.32

Problem: Data request, read-out composite z-score, for `COCCCNC(=O)[C@@H]1c2ccccc2C(=O)N(Cc2ccccc2)[C@H]1c1ccc(CO)cc1`
Result: 0.197

Problem: Data request, read-out composite z-score, for `COCCOC(=O)N1C(=O)[C@@]2(c3cc(C#CC4(O)CCCCCC4)ccc31)[C@H](C(=O)Nc1nc3ccccc3s1)[C@H]1C(=O)O[C@H](c3ccccc3)[C@H](c3ccccc3)N1[C@@H]2c1ccc(OCCO)cc1`
Result: 1.37

Problem: Data request, read-out composite z-score, for `COC(=O)[C@@]1(Cc2ccc(OC)cc2)[C@H]2c3cc(C(=O)N4CCCC4)n(CCSCCO)c3C[C@H]2CN1C(=O)c1ccccc1`
Result: -0.17

Problem: Data request, read-out composite z-score, for `O=c1cccc(-c2ccccc2Cl)o1`
Result: -0.0893

Problem: Data request, read-out composite z-score, for `C=CCN1C(=O)[C@]2(Cc3ccccc3)N=C(c3ccc(OCCCO)cc3)O[C@@H]2c2ccccc21`
Result: 0.878

Problem: Data request, read-out composite z-score, for `Cc1ccc(S[C@]2(C(=O)O)CC(=O)N(Cc3ccccc3C(F)(F)F)[C@@H]2c2ccc(CO)cc2I)cc1`
Result: -1

Problem: Data request, read-out composite z-score, for `O=C1O[C@@H](c2ccccc2)[C@@H](c2ccccc2)N2[C@@H](c3ccc(OCCO)cc3)[C@]3(C(=O)Nc4ccc(C#CC5=CCCCC5)cc43)[C@@H](C(=O)N3CCCCCCC3)[C@H]12`
Result: 1.58

Problem: Data request, read-out composite z-score, for `CCOC(=O)C1=CC[C@H]2C(=O)N(c3ccccc3)C(=O)[C@@H]12`
Result: 1.01

Problem: Data request, read-out composite z-score, for `COC(=O)[C@H](Cc1ccccc1)N[C@H](/C=C/C1CC1)[C@@H](O)Cc1ccccc1`
Result: -0.244

Problem: Data request, read-out composite z-score, for `O=C(NCc1ccccc1)[C@@H]1c2ccccc2C(=O)N(C2Cc3ccccc3C2)[C@H]1c1ccc(CO)cc1`
Result: 0.475

Problem: Data request, read-out composite z-score, for `CN(C)C(=O)[C@]1(Cc2ccccc2)N=C(c2ccc(OCCCO)cc2)O[C@@H]1c1ccccc1N=[N+]=[N-]`
Result: 0.817

Problem: Data request, read-out composite z-score, for `O=C(NC1CC1)[C@@H]1c2ccccc2C(=O)N(C2Cc3ccccc3C2)[C@H]1c1ccc(CO)cc1`
Result: 0.53

Problem: Data request, read-out composite z-score, for `CCOC(=O)C1=CC[C@@H](c2ccccc2)N(S(=O)(=O)c2ccc(C)cc2)[C@H]1c1ccc(CC)cc1`
Result: 0.395

Problem: Data request, read-out composite z-score, for `COc1ccccc1CN1C(=O)c2ccccc2[C@@]2(Cc3ccccc3N(CCCN(C)C)C2=O)[C@@H]1c1ccc(CO)cc1`
Result: 0.76

Problem: Data request, read-out composite z-score, for `CC(C)C(=C=CC[C@H](O)c1ccc(CO)o1)CCO`
Result: 0.402

Problem: Data request, read-out composite z-score, for `C=C(CCCC)/C(=C/C[C@H](OC(C)=O)c1ccccc1OCCO)c1cnc2ccccc2c1`
Result: 0.747

Problem: Data request, read-out composite z-score, for `NCCCCCCNC(=O)[C@H]1C[C@H]2C(=O)N[C@@H](Cc3ccccc3)C(=O)N2[C@H]1c1cccc(OCCO)c1`
Result: 0.362

Problem: Data request, read-out composite z-score, for `CC(C)CNC(=O)[C@@]1(Cc2ccccc2I)c2ccccc2C(=O)N(Cc2ccccc2C(F)(F)F)[C@H]1c1ccc(CO)cc1`
Result: -0.978

Problem: Data request, read-out composite z-score, for `COC(=O)[C@@]1(Cc2ccc(OC)cc2)[C@H]2c3cc(C(=O)N4CCCC4)n(CCc4ccc(O)c(O)c4)c3C[C@H]2CN1C(=O)c1ccccc1`
Result: -0.269

Problem: Data request, read-out composite z-score, for `COc1ccc(C(=O)Nc2ccc(CN3C(=O)[C@]4(O[C@H](CC(=O)N5CCC[C@H]5CO)[C@@H]([Si](C)(C)c5ccc(OC)cc5)[C@@H]4C)c4ccccc43)cc2)cc1`
Result: 0.683

Problem: Data request, read-out composite z-score, for `COc1ccc(CCNC(=O)[C@@]2(c3ccc([N+](=O)[O-])cc3)CC(=O)N(CC34CC5CC(CC(C5)C3)C4)[C@@H]2c2ccc(CO)cc2I)cc1`
Result: 0.861

Problem: Data request, read-out composite z-score, for `COC(=O)[C@@]1(Cc2ccccc2)[C@H]2c3cc(C(=O)N4CCCC4)n(Cc4c(CO)[nH]cc(C)c4=O)c3C[C@H]2CN1C(=O)c1ccccc1`
Result: 0.0713

Problem: Data request, read-out composite z-score, for CC1CC/C=C\[C@H]2OC34C=CCN(c5ccc6ccccc6c5)C(=O)[C@H]3N(CCO)C(=O)[C@@H]4C2C(=O)O1 (stereo not given in full)
Result: -0.391

Problem: Data request, read-out composite z-score, for `O=C(O)[C@H]1C[C@H]2C(=O)N3CCC[C@H]3C(=O)N2[C@H]1c1ccc(O)cc1`
Result: -0.949
